Assignment: determine reported melting point for the given molecules.

# input Please give measured melting point of the following entry: `Cc1ccc2c(C3=NC(C)(C)C(C)(C)c4c(F)cccc43)n(C)nc2c1Cl`
# output 113 to 116 °C

# input Report melting point, nothing else, for this molecule: Cn1nc2c(Br)cccc2c1C1=NC(C)(C)C(O)c2ccccc21 (stereo not drawn)
# output 215 to 217 °C

# input Complete the entry with melting point for Cn1nc2ccccc2c1C1=NC(C)(C)C(Br)c2ccccc21 (stereo not drawn)
# output 165 to 166 °C

# input Consider the molecule `Cn1nc2c(Br)cccc2c1C1=NC(C)(C)C(F)(F)c2c(F)cccc21` . State its measured melting point.
# output 198 to 199 °C

# input Tell us which melting point value is on record for `Cc1cccc2c(C3=NC(C)(C)C(F)(F)c4ccccc43)n(C)nc12`
# output 136 to 137 °C

# input Supply melting point value. Item: `Cc1ccc2c(C3=NC(C)(C)C(F)(F)c4ccccc43)n(C)nc2c1C`
# output 154 to 157 °C

# input Answer with the recorded melting point for the molecule listed here: `Cn1nc2ccccc2c1C1=NC(C)(C)C(C)(C)c2c(F)cccc21`
# output 113 to 115 °C

# input # return recorded melting point for entry `Cc1ccc2c(C3=NC(C)(C)C(C)(C)c4c(F)cccc43)n(C)nc2c1`
# output 137 to 138 °C

# input Give melting point for `Cn1nc2ccccc2c1C1=NC(C)(C)C(=O)c2ccccc21`
# output 169 to 170 °C

# input Answer with the recorded melting point of `Cn1nc2cc(F)ccc2c1C1=NC(C)(C)C(C)(C)c2c(F)cccc21` only.
# output 131 to 133 °C

# input Hello, please tell me recorded melting point for this one: `Cn1nc2c(Br)cccc2c1C1=NC(C)(C)Cc2ccccc21`
# output 161 to 162 °C

# input State, in one line, measured melting point of `Cn1nc2c(Br)cccc2c1C1=NC(C)(C)C(F)(F)c2ccccc21`
# output 157 to 158 °C

# input Give me measured melting point, please, for this molecule: `Cc1c(Cl)ccc2c(C3=NC(C)(C)C(C)(C)c4c(F)cccc43)n(C)nc12`
# output 136 to 142 °C

# input Report melting point, nothing else, for this molecule: `Cc1ccc2c(C3=NC(C)(C)C(C)(C)c4c(F)cccc43)n(C)nc2c1C`
# output 111 to 113 °C

# input Indicate its recorded melting point; the molecule in question is `Cn1nc2ccccc2c1C1=NC(C)(C)Cc2ccccc21`
# output 107 to 108 °C

# input // Input: `Cc1cccc2c(C3=NC(C)(C)C(F)(F)c4c(F)cccc43)n(C)nc12` . Output its melting point only.
# output 164 to 165 °C

# input Give melting point for the following molecule: `CC1(C)N=C(c2n[nH]c3ccccc23)c2cccc(F)c2C1(C)C`
# output 174 to 177 °C

# input Read the entry `Cn1nc2c(Br)cccc2c1C1=NC(C)(C)C(=O)c2c(F)cccc21` and write its reported melting point.
# output 260 to 261 °C

# input Supply measured melting point of `Cc1cccc2c(C3=NC(C)(C)C(C)(C)c4c(F)cccc43)snc12` in your reply.
# output 96 to 98 °C

# input Please report the measured melting point for `Cn1nc2c(Cl)c(Cl)ccc2c1C1=NC(C)(C)Cc2ccccc21`
# output 197 to 199 °C

# input Check the records and state melting point for `Cn1nc2c(Br)cccc2c1C1=NC(C)(C)Cc2c(F)cccc21`
# output 168 to 169 °C

# input Report melting point, nothing else, for this molecule: Cn1nc2c(Br)cccc2c1C1=NC(C)(C)C(O)c2c(F)cccc21 (stereo not drawn)
# output 103 to 105 °C

# input Give melting point for `Cn1nc2c(Cl)cccc2c1C1=NC(C)(C)C(C)(C)c2c(F)cccc21`
# output 45 to 47 °C

# input Entry `Cc1ccc2c(C3=NC(C)(C)C(=O)c4ccccc43)n(C)nc2c1C` needs its melting point filled in; supply it.
# output 174 to 177 °C
